Test system: Mus musculus
Assay: In vivo receptor occupancy at CB1 receptor in mouse hippocampus assessed as inhibition of [3H]SR141716A binding at 3 mg/kg, po for 3 days measured after 1 hr post last dose
Format: functional
measuredMetric: Occ

1) Cc1c(C(=O)NN2CCCCC2)nn(-c2ccc(Cl)cc2Cl)c1-c1ccc(Cl)cc1: 10%
2) NC(=O)CN=C(NS(=O)(=O)c1ccc(Cl)cc1)N1CC(c2ccccc2)C(c2ccc(Cl)cc2)=N1 (single isomer, unassigned; enantiomer 1): 10%
3) CC(C)[C@H](N/C(=N\S(=O)(=O)c1ccc(Cl)cc1)N1C[C@H](c2ccccc2)C(c2ccc(Cl)cc2)=N1)C(N)=O: 10%
4) CN/C(=N\S(=O)(=O)c1ccc(Cl)cc1)N1CC(c2ccccc2)C(c2ccc(Cl)cc2)=N1 (racemic): 15%

---

Target: Cannabinoid receptor 1 (Homo sapiens)
Sequence (P21554 whole entry): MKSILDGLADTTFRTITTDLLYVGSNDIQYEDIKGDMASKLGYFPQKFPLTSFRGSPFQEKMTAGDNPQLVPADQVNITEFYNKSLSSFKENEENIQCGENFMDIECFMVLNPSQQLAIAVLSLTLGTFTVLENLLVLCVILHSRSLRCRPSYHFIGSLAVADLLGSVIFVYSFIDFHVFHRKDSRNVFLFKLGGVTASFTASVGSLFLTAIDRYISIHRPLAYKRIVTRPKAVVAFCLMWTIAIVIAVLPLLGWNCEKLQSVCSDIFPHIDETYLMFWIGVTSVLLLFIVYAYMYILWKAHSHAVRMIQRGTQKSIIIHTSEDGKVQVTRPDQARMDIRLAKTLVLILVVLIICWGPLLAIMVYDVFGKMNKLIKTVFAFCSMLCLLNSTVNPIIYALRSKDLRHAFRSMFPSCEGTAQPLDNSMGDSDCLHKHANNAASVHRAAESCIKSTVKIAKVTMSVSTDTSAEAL
Assay: Displacement of 3[H]ligand from recombinant human CB1 receptor at 100 nM
Quick list: inhibition per entry.
measuredMetric: inhibition (%)

1. COC(=O)CN/C(=N\S(=O)(=O)c1ccc(Cl)cc1)N1CC(c2ccccc2)C(c2ccc(Cl)cc2)=N1 (centres undefined): 88
2. COC(=O)[C@H](C)N/C(=N\S(=O)(=O)c1ccc(Cl)cc1)N1CC(c2ccccc2)C(c2ccc(Cl)cc2)=N1 (some centres undefined): 96
3. CCOC(=O)[C@@H](O)CCN/C(=N\S(=O)(=O)c1ccc(Cl)cc1)N1CC(c2ccccc2)C(c2ccc(Cl)cc2)=N1 (some centres undefined): 53
4. NC(=O)[C@H](Cc1ccccc1)N/C(=N\S(=O)(=O)c1ccc(Cl)cc1)N1CC(c2ccccc2)C(c2ccc(Cl)cc2)=N1 (some centres undefined): 61

---

Molecular target: UniProtKB P34972
Sequence (P34972 whole entry): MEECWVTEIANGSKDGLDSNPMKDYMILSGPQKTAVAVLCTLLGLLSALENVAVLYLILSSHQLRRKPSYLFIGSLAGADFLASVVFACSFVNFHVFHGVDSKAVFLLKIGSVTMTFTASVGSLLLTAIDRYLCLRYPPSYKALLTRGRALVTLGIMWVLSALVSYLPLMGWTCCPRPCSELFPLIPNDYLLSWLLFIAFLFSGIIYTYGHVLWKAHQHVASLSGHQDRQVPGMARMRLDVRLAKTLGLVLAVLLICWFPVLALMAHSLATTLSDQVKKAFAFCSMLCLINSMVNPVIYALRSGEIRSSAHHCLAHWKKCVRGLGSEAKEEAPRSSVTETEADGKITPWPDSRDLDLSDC
Experiment: Displacement of 3[H]ligand from recombinant human CB2 receptor
pIC50: −log10 of the molar value.
Quick list: pIC50 per entry.
measuredMetric: pIC50

1. COc1ccc(S(=O)(=O)NC(=N[C@H](C(=O)NCC(N)=O)C(C)C)N2CC(c3ccccc3)C(c3ccc(Cl)cc3)=N2)cc1 (stereo partly specified): < 5.30
2. C[C@H](N/C(=N\S(=O)(=O)c1ccc(Cl)cc1)N1CC(c2ccccc2)C(c2ccc(Cl)cc2)=N1)C(=O)NCC(N)=O (stereo partly specified): < 6.00
3. NC(=O)CCN=C(NS(=O)(=O)c1ccc(Cl)cc1)N1CC(c2ccccc2)C(c2ccc(Cl)cc2)=N1 (racemic): < 5.30
4. CC(C)[C@H](N/C(=N\S(=O)(=O)c1ccc(Cl)cc1)N1C[C@H](c2ccccc2)C(c2ccc(Cl)cc2)=N1)C(N)=O: < 6.00
5. NC(=O)[C@H](CO)N=C(NS(=O)(=O)c1ccc(Cl)cc1)N1CC(c2ccccc2)C(c2ccc(Cl)cc2)=N1 (stereo partly specified): < 5.30
6. CC(C)[C@H](N/C(=N\S(=O)(=O)c1ccc(Cl)cc1)N1CC(c2ccccc2)C(c2ccc(Cl)cc2)=N1)C(=O)NCC(N)=O (stereo partly specified): < 6.00

---

Quick list: IC50 per entry.
Target: Cannabinoid receptor 1 (Homo sapiens)
Assay: Displacement of 3[H]ligand from recombinant human CB1 receptor
measuredMetric: IC50

1. C[C@H](O)[C@@H](N=C(NS(=O)(=O)c1ccc(Cl)cc1)N1CC(c2ccccc2)C(c2ccc(Cl)cc2)=N1)C(N)=O (stereo partly specified): > 100 nM
2. NC(=O)CNC(=O)CN/C(=N\S(=O)(=O)c1ccc(Cl)cc1)N1CC(c2ccccc2)C(c2ccc(Cl)cc2)=N1 (stereo unspecified): 25 nM
3. NC(=O)[C@@H](N/C(=N\S(=O)(=O)c1ccc(Cl)cc1)N1CC(c2ccccc2)C(c2ccc(Cl)cc2)=N1)C1CCC1 (stereo partly specified): 8.3 nM
4. CC(C)[C@H](N/C(=N\S(=O)(=O)c1ccc(Cl)cc1)N1C[C@H](c2ccccc2)C(c2ccc(Cl)cc2)=N1)C(N)=O: 0.5 nM
5. NC(=O)CN=C(NS(=O)(=O)c1ccc(Cl)cc1)N1CC(c2ccccc2)C(c2ccc(Cl)cc2)=N1 (single isomer, unassigned; enantiomer 2): > 1000 nM
6. CC(CN/C(=N\S(=O)(=O)c1ccc(Cl)cc1)N1CC(c2ccccc2)C(c2ccc(Cl)cc2)=N1)C(N)=O (racemic): 26 nM
